Target: angiotensin II receptor subtype 2 (AT2) (Bos taurus, UniProt G5E6F7)
Construct: from cerebellar cortex in bovine; from tissue; host or cells: bovine cerebellar cortex
Sequence (G5E6F7 1-362): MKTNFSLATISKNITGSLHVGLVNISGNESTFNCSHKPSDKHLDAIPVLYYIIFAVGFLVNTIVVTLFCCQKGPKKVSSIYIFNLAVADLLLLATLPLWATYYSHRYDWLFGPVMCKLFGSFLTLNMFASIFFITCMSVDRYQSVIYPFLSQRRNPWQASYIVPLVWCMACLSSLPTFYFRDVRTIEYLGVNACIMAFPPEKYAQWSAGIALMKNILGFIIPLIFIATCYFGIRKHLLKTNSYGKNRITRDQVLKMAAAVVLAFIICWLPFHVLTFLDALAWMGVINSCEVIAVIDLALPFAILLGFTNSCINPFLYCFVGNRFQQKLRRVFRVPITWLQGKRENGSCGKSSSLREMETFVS
Assay: Binding to angiotensin II receptor subtype 2 (AT2)
Set-up: species or system bovine (cerebellar cortex)
Conditions: 125I-Tyr4-angiotensin II tracer, 37° C., 1 hour
Method: In this Example, the affinity to the angiotensin II receptor subtype 1 or subtype 2 was evaluated by a binding assay in accordance with the method described in Biochem. Pharmacol., 33, 4057-4062 (1984). Specifically, the measurement of the total binding in the presence of each drug was performed as follows: […]
Field: inhibition at 100 µM. Provide a value for each of the molecules that follow.
Answers are plain numbers, in %.

Example entries begin here.
>>> df
                            molecule_smiles            observable  test_result
0      CCCCC(=O)Nc1c(Cl)ncnc1NCc1ccc(OC)cc1  inhibition at 100 µM            0
1  CCCCC(=O)Nc1c(NCc2ccc(C(=O)O)cc2)ncnc1OC  inhibition at 100 µM            0
2  CCCCC(=O)Nc1c(NCc2ccc(OC)cc2)ncnc1NCc1ccc(C(=O)O)cc1  inhibition at 100 µM            0
3  CCCCC(=O)Nc1c(NCCc2ccccc2)ncnc1NCc1ccc(OC)cc1  inhibition at 100 µM            0
4  CCCCC(=O)Nc1c(NCCCc2ccccc2)ncnc1NCc1ccc(C(=O)O)cc1  inhibition at 100 µM            0

// for each molecule below, give its inhibition at 100 µM
1. CCCCC(=O)Nc1c(NCc2ccccc2)ncnc1NCc1ccc(C(=O)O)cc1
2. CCCCC(=O)Nc1c(NCc2ccccc2)ncnc1NCc1ccc(OC)cc1
3. CCCCC(=O)Nc1c(NCc2ccc(C(=O)O)cc2)ncnc1N(C)Cc1ccccc1
4. CCCCC(=O)Nc1c(NCCc2ccccc2)ncnc1NCc1ccc(C(=O)O)cc1
5. CCCCC(=O)Nc1c(Cl)ncnc1NCc1ccc(C(=O)OC)cc1

1. 0
2. 0
3. 0
4. 0
5. 0
